assay: Solubility in 0.1 mol/L hydrochloric acid and pH 6.8 phosphate buffer, 24 h at 37°C; type: physicochemical; conditions: phosphate buffer, pH 6.8, pH 6.8 phosphate buffer
Endpoint: solubility at 24 h (mg/mL)
Use mg/mL as the unit, but write only the number.

If you can, please state the reported solubility at 24 h value of C[C@H](c1cc(N[C@H]2CC[C@H](N)C2)n2nccc2n1)C1CCC1 [Phosphate crystal form I] . 22.5

* * *

Molecular target: CDK9/CycT (Homo sapiens, UniProt P50750)
Construct: purchased Carna Bioscience 04-110
Sequence (P50750 whole entry): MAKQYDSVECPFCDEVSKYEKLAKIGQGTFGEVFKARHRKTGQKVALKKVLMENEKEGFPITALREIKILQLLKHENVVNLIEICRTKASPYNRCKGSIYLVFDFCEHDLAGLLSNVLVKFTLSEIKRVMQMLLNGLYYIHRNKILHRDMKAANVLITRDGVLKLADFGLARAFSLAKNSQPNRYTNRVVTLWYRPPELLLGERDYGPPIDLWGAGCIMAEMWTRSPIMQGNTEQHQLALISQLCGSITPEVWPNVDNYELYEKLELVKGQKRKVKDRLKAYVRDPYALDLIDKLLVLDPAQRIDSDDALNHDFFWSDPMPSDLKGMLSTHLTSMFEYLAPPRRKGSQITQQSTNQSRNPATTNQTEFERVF
Sequence (O60563 whole entry partner): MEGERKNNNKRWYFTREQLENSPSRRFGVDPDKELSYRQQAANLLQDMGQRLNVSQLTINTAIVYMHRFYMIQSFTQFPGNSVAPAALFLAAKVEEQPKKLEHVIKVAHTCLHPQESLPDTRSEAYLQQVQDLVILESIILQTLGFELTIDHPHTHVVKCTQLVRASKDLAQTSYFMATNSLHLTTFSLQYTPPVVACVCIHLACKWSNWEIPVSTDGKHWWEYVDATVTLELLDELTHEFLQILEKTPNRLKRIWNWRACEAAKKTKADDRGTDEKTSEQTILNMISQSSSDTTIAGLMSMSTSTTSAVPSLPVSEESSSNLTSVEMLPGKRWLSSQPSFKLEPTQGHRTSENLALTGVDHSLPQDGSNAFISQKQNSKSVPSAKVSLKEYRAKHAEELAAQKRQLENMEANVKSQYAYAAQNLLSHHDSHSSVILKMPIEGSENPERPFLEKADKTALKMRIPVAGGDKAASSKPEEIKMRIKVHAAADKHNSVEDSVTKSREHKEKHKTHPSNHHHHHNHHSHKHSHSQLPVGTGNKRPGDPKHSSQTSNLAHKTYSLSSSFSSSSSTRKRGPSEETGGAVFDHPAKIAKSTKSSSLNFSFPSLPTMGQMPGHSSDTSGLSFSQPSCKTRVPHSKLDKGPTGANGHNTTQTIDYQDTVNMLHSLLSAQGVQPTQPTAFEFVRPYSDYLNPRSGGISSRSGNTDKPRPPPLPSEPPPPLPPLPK
Assay: LANCE Ultra kinase activity inhibition test, CDK9
Assay type: biochemical
Details: ATP 10 µM
Source text: In the following LANCE Ultra test method, kinase reagents were purchased from Carna Bioscience, reaction substrates and detection reagents were purchased from Perkin Elmer, and the remaining reagents were purchased from Thermo scientific. The LANCE Ultra method was used to determine the inhibitory effect of the test substance on the kinase activity of CDK1/CycB (Carna bioscience, #04-102), CDK2/ CycA (Carna bioscience, #04-103), CDK9/CycT (Carna bioscience, #04-110). […]
Endpoint: IC50 (µM)
Use µM as the unit, but write only the number.

If you can, please state the reported IC50 value of C[C@H](c1cc(N[C@H]2CC[C@H](N)C2)n2nccc2n1)C1CCC1 . 0.012

* * *

test: Solubility in 0.1 mol/L hydrochloric acid and pH 6.8 phosphate buffer, 24 h at 37°C; assay type: physicochemical; settings: 0.1n hcl
Endpoint: solubility at 24 h (mg/mL)
Use mg/mL as the unit, but write only the number.

If you can, please state the reported solubility at 24 h value of C[C@H](c1cc(N[C@H]2CC[C@H](N)C2)n2nccc2n1)C1CCC1 [Phosphate crystal form I] . 22.5

* * *

test: physchem; details: water
Endpoint: solubility

If you can, please state the reported solubility value of C[C@H](c1cc(N[C@H]2CC[C@H](N)C2)n2nccc2n1)C1CCC1 [phosphate] . ≤ 26.6 mg/mL

* * *

assay: Rough solubility in pH 4.5 and pH 6.8 buffers at room temperature; type: physicochemical; settings: phosphate buffer, pH 6.8, rough solubility, pH 6.8 buffer (sodium dihydrogen phosphate-sodium hydroxide system), read-out: Solubility in pH 6.8 buffer
Endpoint: solubility

If you can, please state the reported solubility value of C[C@H](c1cc(N[C@H]2CC[C@H](N)C2)n2nccc2n1)C1CCC1 [Phosphate crystal form I] . ≤ 24.5 mg/mL
